# System: S. pyogenes M1 GAS streptokinase expression, plasminogen activation OD405
# Test details: S. pyogenes plasminogen activation signal decrease – absorbance readout, M1 GAS, streptokinase expression inhibitor project, dose response (AID 2137)
Records with an inconclusive call do not appear.
Measurement type: pIC50
# pIC50 is unitless: minus log10 of the molar concentration; print number only

Can you share its pIC50? I mean this compound: O=C(c1ccc(Cl)cc1)n1c2ccccc2c2ccccc21
4.74

And for Cc1cc2oc(=O)cc(CN(C)Cc3ccccc3)c2cc1C(C)C ?
5.04

And for O=C(CSc1ccncc1)N1c2ccccc2Sc2ccccc21 ?
4.08

And for COc1ccc(Sc2ccc(NC(=O)c3ccccc3Cl)cc2C#N)cc1 ?
5.64

And for COc1ccc(-c2nc(-c3cccs3)c(-c3cccs3)[nH]2)cc1OC ?
5.23

And for Cc1ccc(/C=C/c2ccc(=O)n(Cc3ccccc3Cl)n2)cc1 ?
4.85

And for O=C(CSc1ccccc1)N1c2ccccc2Sc2ccccc21 ?
5.04

And for COC(=O)c1ccccc1NC(=O)c1nc(S(=O)(=O)Cc2ccccc2)ncc1Cl ?
5.47

And for C=CCn1c(SCC#N)nc2c(c1=O)C(C)(C)Cc1ccccc1-2 ?
5.00

And for Cc1noc(C)c1CSc1nc2sc(C)c(C)c2c(=O)n1C1CCCC1 ?
5.50

And for Cn1c(=O)c2c(nc(SCc3ccccc3)n2Cc2ccc(Cl)cc2)n(C)c1=O ?
5.23

* * *

# System: S. pyogenes M1 GAS streptokinase expression, plasminogen activation OD405
# Test details: S. pyogenes plasminogen activation signal decrease – absorbance readout, M1 GAS, streptokinase expression inhibitor project, dose response (AID 2137)
Records with an inconclusive call do not appear. Calls of active or inactive are those of the source.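 How the source made its calls: active means IC50 at most ten times the top tested dose; inconclusive means flat fit with 30 to 70% activity, or an invalid poor fit; inactive means the rest.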
Valid outcomes are listed here; reply with one: active, inactive

Which result was noted for this compound in the test: COc1cccc(C(=O)n2c3ccccc3c3ccccc32)c1
active

And for O=C(NC(=S)Nc1ccccc1N1CCCC1)c1ccccc1Br ?
active

And for O=C(CSc1nc(-c2ccc(Cl)cc2)[nH]c(=O)n1)Nc1cccc(Cl)c1 ?
active

And for N#Cc1ccc(C(=O)n2c3ccccc3c3ccccc32)cc1 ?
active

And for FC(F)(F)c1cc(-c2ccco2)nc(NCc2ccc(Cl)cc2)n1 ?
inactive

And for COc1ccc2oc(C(=O)N3CCN(C(c4ccccc4)c4ccccc4)CC3)c(C)c2c1 ?
active

And for Cc1cc(C(=O)OC(C(=O)Nc2cccc(C(F)(F)F)c2)c2ccccc2)c(C)o1 (stereo not drawn) ?
active

And for CCOC(=O)c1c(NC(=O)c2cccs2)sc(CC)c1-c1cccs1 ?
active
